- EXPERIMENTAL_TARGET: UniProt:P29474
- Sequence (P29474 whole entry): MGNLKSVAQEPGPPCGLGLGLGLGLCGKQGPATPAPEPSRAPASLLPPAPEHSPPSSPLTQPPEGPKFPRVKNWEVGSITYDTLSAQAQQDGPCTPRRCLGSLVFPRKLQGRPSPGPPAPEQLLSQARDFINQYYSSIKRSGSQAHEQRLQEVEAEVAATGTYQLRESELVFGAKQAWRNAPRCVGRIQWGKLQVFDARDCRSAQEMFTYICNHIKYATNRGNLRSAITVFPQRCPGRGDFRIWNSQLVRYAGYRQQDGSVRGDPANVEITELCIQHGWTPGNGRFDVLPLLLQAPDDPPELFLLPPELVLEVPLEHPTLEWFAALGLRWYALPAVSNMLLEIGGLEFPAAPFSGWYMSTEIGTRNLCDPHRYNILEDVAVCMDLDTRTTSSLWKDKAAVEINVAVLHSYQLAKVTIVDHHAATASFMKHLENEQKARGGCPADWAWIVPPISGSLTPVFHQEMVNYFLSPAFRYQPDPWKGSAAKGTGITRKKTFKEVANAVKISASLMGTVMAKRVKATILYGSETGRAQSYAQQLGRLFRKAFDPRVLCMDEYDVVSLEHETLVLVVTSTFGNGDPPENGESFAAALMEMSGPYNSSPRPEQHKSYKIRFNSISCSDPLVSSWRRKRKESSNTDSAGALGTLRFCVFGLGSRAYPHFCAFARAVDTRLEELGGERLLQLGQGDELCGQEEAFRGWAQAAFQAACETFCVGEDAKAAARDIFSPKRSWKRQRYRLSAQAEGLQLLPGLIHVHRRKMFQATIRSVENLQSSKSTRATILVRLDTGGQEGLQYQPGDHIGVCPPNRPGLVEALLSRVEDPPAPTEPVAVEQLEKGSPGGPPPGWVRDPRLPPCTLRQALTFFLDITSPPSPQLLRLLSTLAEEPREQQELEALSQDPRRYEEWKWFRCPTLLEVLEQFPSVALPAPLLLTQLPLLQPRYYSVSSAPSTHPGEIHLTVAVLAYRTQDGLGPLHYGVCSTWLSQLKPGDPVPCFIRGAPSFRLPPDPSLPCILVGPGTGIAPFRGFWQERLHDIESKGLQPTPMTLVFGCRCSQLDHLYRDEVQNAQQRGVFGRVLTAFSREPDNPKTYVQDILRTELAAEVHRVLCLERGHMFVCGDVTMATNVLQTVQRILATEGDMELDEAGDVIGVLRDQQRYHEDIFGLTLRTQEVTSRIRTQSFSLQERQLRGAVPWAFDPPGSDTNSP
- EXPERIMENT_SUMMARY: Inhibitory concentration against recombinant human Endothelial nitric oxide synthase
RECORDED_ENDPOINT: IC50 (µM)

COMPOUND_SMILES: N=C(Nc1ccc(CCNCc2cccc(Cl)c2)cc1)c1cccs1
EXPERIMENTAL_TARGET: UniProt:P29474
IC50 [µM]: 3.5

(P) CNCCOc1ccc2c(c1)N=C(N)[C@@H]1CCC[C@H]21
(Q) NC1=Nc2cc(CNCc3cccc(Cl)c3)ccc2[C@H]2CCC[C@@H]12
Could you check which of P and Q has a smaller value for IC50? State your choice using its label.
Q
(Q: 9.6 µM, P: 52 µM)

Where do these numbers come from? They come from ChEMBL document CHEMBL1136534.
